- System: TNFα
- Method summary: LPS-induced TNFα release in THP-1 cells
- Assay type: cell-based
- Test settings: Homo sapiens, THP-1, THP1 cells
Experimental endpoint: IC50 (nM)
Answer in nM, number only, no unit symbol.

Prompt line: Return reported IC50. Input molecule: Cc1ccc(-n2nc(C(C)(C)C)cc2NC(=O)Nc2ccc(Oc3ccnc(Nc4cccc(C)c4)n3)c3ccccc23)cc1 [Example 12]
Response line: 30

Prompt line: Entry Cc1ccc(-n2nc(C(C)(C)C)cc2NC(=O)Nc2ccc(Oc3ccnc(Nc4ccccc4)n3)c3ccccc23)cc1 [Example 1] needs its IC50 filled in; supply it.
Response line: 3.4

Prompt line: Read off the recorded IC50 for COc1cc(Nc2nccc(Oc3ccc(NC(=O)Nc4cc(C(C)(C)C)nn4-c4ccc(C)cc4)c4ccccc34)n2)ccc1O [Example 25]
Response line: 0.4

Prompt line: Give me measured IC50, please, for this molecule: Cc1ccc(-n2nc(C(C)(C)C)cc2NC(=O)Nc2ccc(Oc3ccnc(Nc4ccc(O)cc4)n3)c3ccccc23)cc1 [Example 9]
Response line: 1.3

Prompt line: Entry Cc1ccc(-n2nc(C(C)(C)C)cc2NC(=O)Nc2ccc(Oc3ccnc(Nc4ccc(O)c(F)c4)n3)c3ccccc23)cc1 [Example 29] needs its IC50 filled in; supply it.
Response line: 1.6

###

- Tested on: TNFα
- Method summary: LPS-induced TNFα release in d-U937 cells
- Format: cell-based
- Test settings: Homo sapiens, dU937, dU937 cells; relative to 10 μg/mL BIRB796; read-out: LPS Induced Release TNFα REC50 (dU937)
Kindly supply the reported EC50 values for the records listed here.
State the answer as a number, implicitly in nM.

Prompt line: Name the value of EC50 reported for `Cc1ccc(-n2nc(C(C)(C)C)cc2NC(=O)Nc2ccc(Oc3ccnc(Nc4ccccc4Cl)n3)c3ccccc23)cc1` when tested on TNFα.
Response line: 7

Prompt line: # lookup: TNFα EC50, key = `Cc1ccc(-n2nc(C(C)(C)C)cc2NC(=O)Nc2ccc(Oc3ccnc(Nc4ccc(C)c(O)c4)n3)c3ccccc23)cc1`
Response line: 4.1

Prompt line: GET EC50 where system = TNFα and item = `Cc1ccc(-n2nc(C(C)(C)C)cc2NC(=O)Nc2ccc(Oc3ccnc(Nc4cccc(O)c4)n3)c3ccccc23)cc1`
Response line: 2.4

Prompt line: Print TNFα EC50 for `Cc1ccc(-n2nc(C(C)(C)C)cc2NC(=O)Nc2ccc(Oc3ccnc(Nc4ccc(O)c(F)c4)n3)c3ccccc23)cc1` .
Response line: 11

Prompt line: Supply EC50 measured with TNFα for `COc1ccccc1Nc1nccc(Oc2ccc(NC(=O)Nc3cc(C(C)(C)C)nn3-c3ccc(C)cc3)c3ccccc23)n1` .
Response line: 2.9

Prompt line: Give the observed EC50 of `Cc1ccc(-n2nc(C(C)(C)C)cc2NC(=O)Nc2ccc(Oc3ccnc(Nc4cccc(F)c4)n3)c3ccccc23)cc1` for TNFα.
Response line: 2.2

Prompt line: // output EC50; input `Cc1ccc(-n2nc(C(C)(C)C)cc2NC(=O)Nc2ccc(Oc3ccnc(Nc4ccc(O)cc4C)n3)c3ccccc23)cc1` ; system TNFα
Response line: 2.3

###

- System: TNFα
- Method summary: LPS-induced TNFα release in d-U937 cells
- Assay type: cell-based
- Test settings: Homo sapiens, dU937, dU937 cells; relative to 10 μg/mL BIRB796; read-out: LPS Induced Release TNFα REC50 (dU937)
Experimental endpoint: pEC50
pEC50 is defined as minus the log10 of a concentration measured in mol/L.

Prompt line: Determine from records and report pEC50 for COc1ccc(Nc2nccc(Oc3ccc(NC(=O)Nc4cc(C(C)(C)C)nn4-c4ccc(C)cc4)c4ccccc34)n2)c(OC)c1 [Example 8]
Response line: 6.64

Prompt line: State its pEC50 for this compound: Cc1ccc(-n2nc(C(C)(C)C)cc2NC(=O)Nc2ccc(Oc3ccnc(Nc4ccccc4C)n3)c3ccccc23)cc1 [Example 21]
Response line: 8.01

Prompt line: Please give the documented pEC50 of Cc1ccc(-n2nc(C(C)(C)C)cc2NC(=O)Nc2ccc(Oc3ccnc(Nc4ccc(Cl)cc4)n3)c3ccccc23)cc1 [Example 16]
Response line: 8.96

Prompt line: Input Cc1ccc(-n2nc(C(C)(C)C)cc2NC(=O)Nc2ccc(Oc3ccnc(Nc4ccc(O)cc4O)n3)c3ccccc23)cc1 [Example 32] , output reported pEC50.
Response line: 7.92

Prompt line: Report pEC50 for CCOc1ccc(Nc2nccc(Oc3ccc(NC(=O)Nc4cc(C(C)(C)C)nn4-c4ccc(C)cc4)c4ccccc34)n2)cc1 [Example 22]
Response line: 7.77

Prompt line: Please supply the value of reported pEC50 for the item Cc1ccc(Nc2nccc(Oc3ccc(NC(=O)Nc4cc(C(C)(C)C)nn4-c4ccc(C)cc4)c4ccccc34)n2)cc1 [Example 11]
Response line: 7.46

Prompt line: Annotate the compound COc1cccc(Nc2nccc(Oc3ccc(NC(=O)Nc4cc(C(C)(C)C)nn4-c4ccc(C)cc4)c4ccccc34)n2)c1 [Example 14] with its measured pEC50.
Response line: 8.70

Prompt line: Dear colleague, please send me the reported pEC50 for COc1cc(Nc2nccc(Oc3ccc(NC(=O)Nc4cc(C(C)(C)C)nn4-c4ccc(C)cc4)c4ccccc34)n2)ccc1O [Example 25] when you can.
Response line: 9.08

Prompt line: Give the reported pEC50 for this compound. Cc1ccc(-n2nc(C(C)(C)C)cc2NC(=O)Nc2ccc(Oc3ccnc(Nc4ccc(O)cc4)n3)c3ccccc23)cc1 [Example 9]
Response line: 8.77

Prompt line: Please report the measured pEC50 for Cc1ccc(-n2nc(C(C)(C)C)cc2NC(=O)Nc2ccc(Oc3ccnc(Nc4ccc(O)cc4F)n3)c3ccccc23)cc1 [Example 30]
Response line: 9.00

Prompt line: Please give measured pEC50 of the following entry: Cc1ccc(-n2nc(C(C)(C)C)cc2NC(=O)Nc2ccc(Oc3ccnc(Nc4ccccc4)n3)c3ccccc23)cc1 [Example 1]
Response line: 8.64

Prompt line: Give the measured pEC50 for CC(C)(C)c1cc(NC(=O)Nc2ccc(Oc3ccnc(Nc4ccccc4)n3)c3ccccc23)n(-c2ccc(O)cc2)n1 [Example 3]
Response line: 8.77

Prompt line: Fill in pEC50 for record COc1ccc(Nc2nccc(Oc3ccc(NC(=O)Nc4cc(C(C)(C)C)nn4-c4ccc(C)cc4)c4ccccc34)n2)cc1 [Example 17]
Response line: 8.70

Prompt line: Please list pEC50 recorded for the compound COc1ccc(Nc2nccc(Oc3ccc(NC(=O)Nc4cc(C(C)(C)C)nn4-c4ccc(C)cc4)c4ccccc34)n2)cc1OC [Example 27]
Response line: 9.27
